- TESTED_TARGET: recombinant human PREP (rhPREP) (Homo sapiens)
- Sequence (P48147 whole entry): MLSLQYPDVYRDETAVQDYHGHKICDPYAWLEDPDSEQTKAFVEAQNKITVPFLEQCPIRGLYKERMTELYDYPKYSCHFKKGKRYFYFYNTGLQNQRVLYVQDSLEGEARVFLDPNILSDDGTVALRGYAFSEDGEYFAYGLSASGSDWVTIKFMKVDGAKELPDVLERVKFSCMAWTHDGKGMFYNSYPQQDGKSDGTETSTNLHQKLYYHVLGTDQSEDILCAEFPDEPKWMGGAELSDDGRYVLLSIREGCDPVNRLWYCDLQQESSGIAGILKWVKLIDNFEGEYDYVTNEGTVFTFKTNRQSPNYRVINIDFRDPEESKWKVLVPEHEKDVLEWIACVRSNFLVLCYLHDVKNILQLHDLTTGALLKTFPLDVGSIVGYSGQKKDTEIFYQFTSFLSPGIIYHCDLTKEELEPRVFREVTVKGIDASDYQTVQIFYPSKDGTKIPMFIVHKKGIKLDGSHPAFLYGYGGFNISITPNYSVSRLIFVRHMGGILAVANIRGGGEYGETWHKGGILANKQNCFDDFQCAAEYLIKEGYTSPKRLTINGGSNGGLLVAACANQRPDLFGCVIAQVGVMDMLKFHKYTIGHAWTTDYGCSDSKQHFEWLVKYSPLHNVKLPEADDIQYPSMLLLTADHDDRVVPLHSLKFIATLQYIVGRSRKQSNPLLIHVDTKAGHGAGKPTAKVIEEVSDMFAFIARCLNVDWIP
- ASSAY_TEXT: PREP enzymatic activity assay
- Type: biochemical
- RUN_CONDITIONS: Z-Gly-Pro-AMC substrate
Structures can show the parent of a compound that is named as a salt.
MEASUREMENT_NAME: IC50

Give the reported IC50 for this molecule. N#C[C@@H]1CC(F)(F)CN1C(=O)CNC(=O)c1ccncc1-c1ccc(N)nc1 [Compound 107, formate]
> 10 µM

Give the reported IC50 for this molecule. N#C[C@@H]1CC(F)(F)CN1C(=O)CNC(=O)c1ccncc1Cc1ccccc1
1 to 10 µM

Give the reported IC50 for this molecule. N#C[C@@H]1CC(F)(F)CN1C(=O)CNC(=O)c1c[nH]c(=O)cc1-c1ccnc2ccccc12
> 10 µM

Give the reported IC50 for this molecule. N#C[C@@H]1CC(F)(F)CN1C(=O)CNC(=O)c1ccncc1C1=CCCCC1
> 10 µM

Give the reported IC50 for this molecule. N#C[C@@H]1CC(F)(F)CN1C(=O)CNC(=O)c1ccncc1-c1ccccc1
> 10 µM

Give the reported IC50 for this molecule. CC(C)(C)c1cccc(-c2cnccc2C(=O)NCC(=O)N2CC(F)(F)C[C@H]2C#N)c1
> 10 µM

Give the reported IC50 for this molecule. Cn1ncc2c(-c3cnccc3C(=O)NCC(=O)N3CC(F)(F)C[C@H]3C#N)cccc21
> 10 µM

Give the reported IC50 for this molecule. Cc1ccccc1-c1cnccc1C(=O)NCC(=O)N1CC(F)(F)C[C@H]1C#N
> 10 µM

====

- ASSAY_TEXT: Intravenous and oral bioavailability in mice
- Type: in vivo
- RUN_CONDITIONS: mouse, in vivo, PO 10 mg/kg vs IV 2 mg/kg, read-out: F (bioavailability)
MEASUREMENT_NAME: bioavailability (%)
Quick reminder: number only, in %, skip the unit.

Give the reported bioavailability for this molecule. N#C[C@@H]1CC(F)(F)CN1C(=O)CNC(=O)c1ccncc1C1=CCNCC1 [Compound 105, 2,2,2-trifluoroacetate]
3

====

- TESTED_TARGET: recombinant human DPP9 (rhDPP9) (Homo sapiens)
- Construct: purchased R&S system (so in the source)
- ASSAY_TEXT: DPP9 enzymatic activity assay
- Type: biochemical
- RUN_CONDITIONS: H-Gly-Pro-AMC substrate
- Description: 7-Amino-4-Methylcoumarin (AMC) release was detected by measuring fluorescence at Ex/Em 380/460 nm using a Multifunction Microplate Reader (Synergy 4, Biotek). All measurements were carried out in triplicate.
pIC50: −log10 of the molar value.
MEASUREMENT_NAME: pIC50

Give the reported pIC50 for this compound. CC(C)(C)c1cccc(-c2cnccc2C(=O)NCC(=O)N2CC(F)(F)C[C@H]2C#N)c1
< 5.00

Give the reported pIC50 for this compound. N#C[C@@H]1CC(F)(F)CN1C(=O)CNC(=O)c1ccncc1Nc1ccc(F)cc1 [Compound 114, 2,2,2-trifluoroacetate]
< 5.00

Give the reported pIC50 for this compound. N#C[C@@H]1CC(F)(F)CN1C(=O)CNC(=O)c1ccncc1-c1ccc(Cl)c(F)c1
< 5.00

Give the reported pIC50 for this compound. N#C[C@@H]1CC(F)(F)CN1C(=O)CNC(=O)c1ccncc1CCc1ccccc1
5.00 to 6.00

Give the reported pIC50 for this compound. N#C[C@@H]1CC(F)(F)CN1C(=O)CNC(=O)c1ccncc1Cc1ccccc1
> 6.00

Give the reported pIC50 for this compound. N#C[C@@H]1CC(F)(F)CN1C(=O)CNC(=O)c1c[nH]c(=O)c2ccccc12
5.00 to 6.00

Give the reported pIC50 for this compound. Cn1ccc2c(-c3cnccc3C(=O)NCC(=O)N3CC(F)(F)C[C@H]3C#N)cccc21
< 5.00

Give the reported pIC50 for this compound. Cn1ncc2c(-c3cnccc3C(=O)NCC(=O)N3CC(F)(F)C[C@H]3C#N)cccc21
< 5.00

Give the reported pIC50 for this compound. N#C[C@@H]1CC(F)(F)CN1C(=O)CNC(=O)c1ccncc1Nc1cccnc1
< 5.00

Give the reported pIC50 for this compound. N#C[C@@H]1CC(F)(F)CN1C(=O)CNC(=O)c1c[nH]c(=O)cc1-c1ccnc2ccccc12
< 5.00

Give the reported pIC50 for this compound. N#C[C@@H]1CC(F)(F)CN1C(=O)CNC(=O)c1ccncc1N1CCC(N)CC1 [Compound 120, 2,2,2-trifluoroacetate]
< 5.00

Give the reported pIC50 for this compound. N#C[C@@H]1CC(F)(F)CN1C(=O)CNC(=O)c1c[nH]c(=O)cc1-c1ccccc1
< 5.00

Give the reported pIC50 for this compound. N#C[C@@H]1CC(F)(F)CN1C(=O)CNC(=O)c1ccncc1-c1ccc(F)cc1
< 5.00

Give the reported pIC50 for this compound. N#C[C@@H]1CC(F)(F)CN1C(=O)CNC(=O)c1ccncc1N1CCOCC1
5.00 to 6.00

Give the reported pIC50 for this compound. C=C(c1ccccc1)c1cnccc1C(=O)NCC(=O)N1CC(F)(F)C[C@H]1C#N
< 5.00

Give the reported pIC50 for this compound. Cc1noc(C)c1-c1cnccc1C(=O)NCC(=O)N1CC(F)(F)C[C@H]1C#N
< 5.00

====

- ASSAY_TEXT: Intravenous and oral bioavailability in mice
- Format: in vivo
- RUN_CONDITIONS: mouse, in vivo, oral (PO) 10 mg/kg single dose, plasma
MEASUREMENT_NAME: AUC(0-t) (ng·h/mL)
Quick reminder: number only, in ng·h/mL, skip the unit.

Give the reported AUC(0-t) for this molecule. N#C[C@@H]1CC(F)(F)CN1C(=O)CNC(=O)c1ccncc1C1=CCNCC1 [Compound 105, 2,2,2-trifluoroacetate]
18.3

====

- TESTED_TARGET: recombinant human DPP9 (rhDPP9) (Homo sapiens)
- ASSAY_TEXT: DPP9 enzymatic activity assay
- RUN_CONDITIONS: H-Gly-Pro-AMC substrate
pIC50: −log10 of the molar value.
MEASUREMENT_NAME: pIC50

Give the reported pIC50 for this compound. N#C[C@@H]1CC(F)(F)CN1C(=O)CNC(=O)c1ccncc1-c1ccnc2ccccc12 [Compound 51]
< 5.00

Give the reported pIC50 for this compound. N#C[C@@H]1CC(F)(F)CN1C(=O)CNC(=O)c1c[nH]c(=O)c2ccc(F)cc12 [Compound 26]
5.00 to 6.00

Give the reported pIC50 for this compound. N#C[C@@H]1CC(F)(F)CN1C(=O)CNC(=O)c1ccncc1C1=CCNCC1 [Compound 105, 2,2,2-trifluoroacetate]
< 5.00

Give the reported pIC50 for this compound. CC(c1ccccc1)c1cnccc1C(=O)NCC(=O)N1CC(F)(F)C[C@H]1C#N (some centres unmarked) [Compound 123]
5.00 to 6.00

Give the reported pIC50 for this compound. CCOc1cnccc1C(=O)NCC(=O)N1CC(F)(F)C[C@H]1C#N [Compound 113]
< 5.00

Give the reported pIC50 for this compound. N#C[C@@H]1CC(F)(F)CN1C(=O)CNC(=O)c1ccncc1Nc1ccccc1 [Compound 102]
< 5.00

Give the reported pIC50 for this compound. N#C[C@@H]1CC(F)(F)CN1C(=O)CNC(=O)c1c[nH]c(=O)c(-c2ccccc2)c1 [Compound 14]
5.00 to 6.00

Give the reported pIC50 for this compound. Cc1ccccc1-c1cnccc1C(=O)NCC(=O)N1CC(F)(F)C[C@H]1C#N [Compound 64]
< 5.00

====

- TESTED_TARGET: recombinant human DPP9 (rhDPP9) (Homo sapiens, UniProt Q86TI2)
- Sequence (Q86TI2 whole entry): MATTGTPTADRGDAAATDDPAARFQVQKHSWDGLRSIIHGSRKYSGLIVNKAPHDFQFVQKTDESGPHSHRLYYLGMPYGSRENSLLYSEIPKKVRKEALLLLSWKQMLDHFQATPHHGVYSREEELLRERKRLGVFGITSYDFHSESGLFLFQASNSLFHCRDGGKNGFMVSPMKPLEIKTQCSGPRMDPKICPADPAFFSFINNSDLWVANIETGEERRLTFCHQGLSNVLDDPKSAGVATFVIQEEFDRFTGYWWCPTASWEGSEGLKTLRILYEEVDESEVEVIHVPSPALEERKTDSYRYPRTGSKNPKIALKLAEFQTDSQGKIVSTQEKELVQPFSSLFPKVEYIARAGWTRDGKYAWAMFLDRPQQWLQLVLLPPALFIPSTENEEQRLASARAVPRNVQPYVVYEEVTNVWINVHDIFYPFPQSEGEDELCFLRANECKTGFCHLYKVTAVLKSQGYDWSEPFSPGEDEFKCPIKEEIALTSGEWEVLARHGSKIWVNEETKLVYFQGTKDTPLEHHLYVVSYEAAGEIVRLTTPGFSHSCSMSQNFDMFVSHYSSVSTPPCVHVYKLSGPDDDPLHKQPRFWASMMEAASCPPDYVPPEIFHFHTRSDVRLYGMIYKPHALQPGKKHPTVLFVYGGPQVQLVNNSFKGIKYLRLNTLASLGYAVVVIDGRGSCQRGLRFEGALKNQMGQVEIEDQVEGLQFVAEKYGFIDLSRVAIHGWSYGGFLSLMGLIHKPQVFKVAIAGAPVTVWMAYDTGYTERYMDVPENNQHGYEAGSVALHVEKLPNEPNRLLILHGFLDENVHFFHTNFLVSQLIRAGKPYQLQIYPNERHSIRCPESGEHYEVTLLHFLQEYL
- ASSAY_TEXT: DPP9 enzymatic activity assay
- RUN_CONDITIONS: H-Gly-Pro-AMC substrate
Counter-ions that a name gives are not always drawn.
For each of the compounds below, state its IC50.

Give the reported IC50 for this compound. N#C[C@@H]1CC(F)(F)CN1C(=O)CNC(=O)c1ccncc1Oc1ccc(F)cc1
> 10 µM

Give the reported IC50 for this compound. Cc1ccc(-c2cnccc2C(=O)NCC(=O)N2CC(F)(F)C[C@H]2C#N)o1
> 10 µM

Give the reported IC50 for this compound. N#C[C@@H]1CC(F)(F)CN1C(=O)CNC(=O)c1ccncc1-c1cc(Cl)ccc1F
> 10 µM

Give the reported IC50 for this compound. N#C[C@@H]1CC(F)(F)CN1C(=O)CNC(=O)c1ccncc1-c1ccc2c(c1)CCN2
> 10 µM

Give the reported IC50 for this compound. N#C[C@@H]1CC(F)(F)CN1C(=O)CNC(=O)c1ccncc1-c1ccc(N)nc1 [Compound 107, formate]
1 to 10 µM

Give the reported IC50 for this compound. N#C[C@@H]1CC(F)(F)CN1C(=O)CNC(=O)c1ccc(=O)n2c1CCCCC2
> 10 µM

Give the reported IC50 for this compound. Cn1cc(C(=O)NCC(=O)N2CC(F)(F)C[C@H]2C#N)c2ccccc2c1=O
> 10 µM

Give the reported IC50 for this compound. N#C[C@@H]1CC(F)(F)CN1C(=O)CNC(=O)c1ccncc1C1=CCCCC1
1 to 10 µM
